- MEASURED_TARGET: NAD-dependent protein deacetylase sirtuin-3, mitochondrial (Homo sapiens)
- Sequence (Q9NTG7 whole entry): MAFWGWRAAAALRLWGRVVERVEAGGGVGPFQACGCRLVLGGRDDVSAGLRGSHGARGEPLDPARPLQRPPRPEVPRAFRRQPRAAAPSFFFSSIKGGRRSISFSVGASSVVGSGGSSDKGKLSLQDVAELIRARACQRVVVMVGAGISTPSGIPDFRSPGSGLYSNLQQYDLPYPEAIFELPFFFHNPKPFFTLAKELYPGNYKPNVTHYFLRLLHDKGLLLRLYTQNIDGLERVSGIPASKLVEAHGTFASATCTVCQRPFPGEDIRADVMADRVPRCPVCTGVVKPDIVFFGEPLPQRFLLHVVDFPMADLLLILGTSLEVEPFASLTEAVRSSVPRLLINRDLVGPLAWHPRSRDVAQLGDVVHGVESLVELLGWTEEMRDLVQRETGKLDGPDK
QUANTITY_KIND: IC50 (µM)
Use µM as the unit, but write only the number.

Task item: IC50 lookup needed for O=C1CSC2=Nc3c(sc4ccc(Cl)cc34)C(c3ccc4ccccc4c3)N12 (stereo unspecified) , thanks.
Reply: 48.7
